Origin of values: paper PMC8375242

Tested on: human ovarian cancer (SKOV-3)
Test: MTT cytotoxicity assay, SKOV-3
Type: cell-based
Conditions: read-out: IC50 SKOV-3 (72 h), 72 h incubation
Metric Name: pIC50
Numbers only, as −log10 of the molar value.

{"Compound": "O=C1[O][Pt]2([NH][C@@H]3CCCC[C@H]3[NH]2)[O]C1=O [oxaliplatin]", "pIC50": 5.12}

Attention now turns to another entry.
Prompt: # query: pIC50 of entry N.N.[Cl][Pt][Cl] [cisplatin]
Completion: 5.92
